measured target: somatostatin receptor (Rattus norvegicus)
Construct: endogenous in cells; host or cells: AR42J pancreatic tumour cells (whole cells)
Sequence (P30680 whole entry): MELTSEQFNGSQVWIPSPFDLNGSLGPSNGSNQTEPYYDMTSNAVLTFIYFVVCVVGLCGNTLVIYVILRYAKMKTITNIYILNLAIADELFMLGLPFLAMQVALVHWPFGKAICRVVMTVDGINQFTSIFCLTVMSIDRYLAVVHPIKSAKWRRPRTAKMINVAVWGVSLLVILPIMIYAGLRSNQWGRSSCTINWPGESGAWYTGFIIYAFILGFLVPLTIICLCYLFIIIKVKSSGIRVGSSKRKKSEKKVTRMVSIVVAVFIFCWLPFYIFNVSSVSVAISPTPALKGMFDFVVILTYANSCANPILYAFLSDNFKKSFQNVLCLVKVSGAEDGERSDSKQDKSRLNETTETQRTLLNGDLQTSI
run description: Competitive binding assay displacing [111In]-DTPA-Octreotide (OctreoScan) on AR42J tumour cells
run conditions: read-out: Alkyne analogue (a) IC50
experimental endpoint: IC50 (nM)
Report the value in nM with no unit label.

* C#CCCC(=O)N[C@H](Cc1ccccc1)C(=O)N[C@H]1CSSC[C@@H](C(=O)N[C@H](C(=O)O)[C@@H](C)O)NC(=O)[C@H]([C@@H](C)O)NC(=O)[C@H](CCCCN)NC(=O)[C@@H](Cc2c[nH]c3ccccc23)NC(=O)[C@H](Cc2ccc(O)cc2)NC1=O [4a, E-TOCA] | 1.8

Lab book: IC50 of C#CCCC(=O)NCCOCCOCCOCCOCCOCCOCCC(=O)N[C@H](Cc1ccccc1)C(=O)N[C@H]1CSSC[C@@H](C(=O)N[C@H](C(=O)O)[C@@H](C)O)NC(=O)[C@H]([C@@H](C)O)NC(=O)[C@H](CCCCN)NC(=O)[C@@H](Cc2c[nH]c3ccccc23)NC(=O)[C@H](Cc2ccc(O)cc2)NC1=O [2a, E-PEG-TOCA] noted as 5.1

So for C#CC(=O)NCCC(=O)NCC(=O)N[C@H](Cc1ccccc1)C(=O)N[C@H]1CSSC[C@@H](C(=O)N[C@H](C(=O)O)[C@@H](C)O)NC(=O)[C@H]([C@@H](C)O)NC(=O)[C@H](CCCCN)NC(=O)[C@@H](Cc2c[nH]c3ccccc23)NC(=O)[C@H](Cc2ccc(O)cc2)NC1=O [5a, propynoyl-β-Ala-Gly-[Tyr^3]-Octreotate] , the logged IC50 turned out to be 1

response.value for C#CC(=O)NCC(=O)N[C@H](Cc1ccccc1)C(=O)N[C@H]1CSSC[C@@H](C(=O)N[C@H](C(=O)O)[C@@H](C)O)NC(=O)[C@H]([C@@H](C)O)NC(=O)[C@H](CCCCN)NC(=O)[C@@H](Cc2c[nH]c3ccccc23)NC(=O)[C@H](Cc2ccc(O)cc2)NC1=O [3a, G-TOCA] (field: IC50) = 1.4

These measurements were taken from patent US10201625B2.
